target system: GABA-A receptor; anion channel
assay notes: Inhibition of [11C]flumazenil binding to GABA-A central benzodiazepine receptor of monkey brain
metric: IC50

Hello, please tell me recorded IC50 for this one: CC(=O)Nc1cc(F)ccc1Oc1ccccc1
> 10 µM

---

assay notes: Partition coefficient of the compound
Format: physicochemical
assay context: octanol/water
Label scheme for logD: lower than 4 is n, 4 and above is y.

Sample answers from the record:
INSERT INTO results (molecule, answer_label) VALUES
  ('CCC(C)N(C)C(=O)c1cc2ccccc2c(-c2ccccc2Cl)n1 (stereo unspecified) [PK-11195]', 'n'),
  ('COc1ccc(OC)c(CN(C(C)=O)c2cc(F)ccc2Oc2ccccc2)c1', 'n'),
  ('COc1ccc(OCCOS(=O)(=O)c2ccc(C)cc2)c(CN(C(C)=O)c2cc(F)ccc2Oc2ccccc2)c1', 'y'),
  ('COc1ccc(OCF)c(CN(C(C)=O)c2cc(F)ccc2Oc2ccccc2)c1', 'n');

Please find the next molecule below.
Quick check, logD >= 4? COc1ccc(OCCF)c(CN(C(C)=O)c2cc(F)ccc2Oc2ccccc2)c1
n

---

Hi! I'm sharing some Ki results obtained with Translocator protein (Rattus norvegicus).
The reply should contain only the number, in nM.

Hello, please tell me recorded Ki for this one: COc1ccc(OCF)c(CN(C(C)=O)c2cc(F)ccc2Oc2ccccc2)c1
0.17

---

Hi! I'm sharing some pKi results obtained with Translocator protein (Rattus norvegicus, UniProt P16257).
Sequence (P16257 whole entry, looked up): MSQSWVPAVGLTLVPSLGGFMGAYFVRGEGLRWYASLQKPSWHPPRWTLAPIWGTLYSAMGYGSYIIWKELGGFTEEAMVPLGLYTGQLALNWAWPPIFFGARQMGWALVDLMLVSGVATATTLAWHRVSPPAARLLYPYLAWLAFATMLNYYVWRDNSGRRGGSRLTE
When answering, recall that pKi equals minus log10 of the concentration in mol/L, and write that number alone.

Some solved entries appear below for comparison.
INSERT INTO measurements (smiles_text, reported) VALUES
  ('COc1ccc(OCCOS(=O)(=O)c2ccc(C)cc2)c(CN(C(C)=O)c2cc(F)ccc2Oc2ccccc2)c1', 7.74),
  ('COc1ccc(OCCF)c(CN(C(C)=O)c2cc(F)ccc2Oc2ccccc2)c1', 10.11);

Attention now turns to another entry.
Hello, please tell me recorded pKi for this one: COc1ccc(OC)c(CN(C(C)=O)c2cc(F)ccc2Oc2ccccc2)c1
9.80

src = ChEMBL document CHEMBL1149155
